Values compiled from patent US20230073007A1.

# assayed-system: anti-HRP antibody / HRP
# experiment-description: Antigen-binding coefficient of the antibody in solution measured via isolated switching binder (FIGS. 10A to 10D)
# assay-context: target antigen HRP, anti-HRP antibody not immobilized; calculated from amount of isolated switching binder; read-out: antigen-binding coefficient (Kd) of the antibody in solution, measured using the switching binder
pKd: −log10 of the molar value.
Below is a list of entries, each paired with its recorded pKd value.

- sequence-text: "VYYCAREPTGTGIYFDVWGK [H2, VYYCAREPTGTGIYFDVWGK]"
  pKd: 5.54
- sequence-text: "VYYCFQGSHVPFTK [L2, V-Y-Y-C-F-Q-G-S-H-V-P-F-T-K]"
  pKd: 5.92
- sequence-text: "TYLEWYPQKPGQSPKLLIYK [L1, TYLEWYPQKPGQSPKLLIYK]"
  pKd: 6.05
